Source listed as patent US20210388087A1.

Target: T1, Human CD3eg linker (human)
T1 construct: Single chain: epsilon and gamma subunits of human CD3 joined by a 29-mer linker, Flag-tag at the C-terminus; also called recombinant human CD3
T1 chain: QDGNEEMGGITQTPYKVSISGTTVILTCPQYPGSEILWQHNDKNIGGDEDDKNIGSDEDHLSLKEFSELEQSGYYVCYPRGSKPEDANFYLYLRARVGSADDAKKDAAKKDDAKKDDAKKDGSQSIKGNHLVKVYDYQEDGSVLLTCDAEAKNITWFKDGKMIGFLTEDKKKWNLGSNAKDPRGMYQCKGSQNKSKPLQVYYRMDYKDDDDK
Assay: Biacore SPR, vs template H183/L072
EXPERIMENTAL READOUT: fold change of affinity (fold)
Could you give me the number in fold? Just the number is fine.

Study these solved cases before continuing.
BINDER: H183/L072 VH G26E (antibody, name in Kabat numbering, V domains shown) VH: QVQLVESGGGLVQPGRSLRLSCAASEFTFSNAWMHWVRQAPGKGLEWVAQIKDKGNAYAAYYAPSVKGRFTISRDDSKNSIYLQMNSLKTEDTAVYYCHYVHYASASTVLPAFGVDAWGQGTTVTVSS VL: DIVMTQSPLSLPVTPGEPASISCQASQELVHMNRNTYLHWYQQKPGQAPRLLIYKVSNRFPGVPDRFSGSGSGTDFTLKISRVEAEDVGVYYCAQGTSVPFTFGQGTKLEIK
MEASUREMENT UNIT: fold
fold change of affinity: 0.6
//
BINDER: H183/L072 VH N53K (antibody, name in Kabat numbering, V domains shown) VH: QVQLVESGGGLVQPGRSLRLSCAASGFTFSNAWMHWVRQAPGKGLEWVAQIKDKGKAYAAYYAPSVKGRFTISRDDSKNSIYLQMNSLKTEDTAVYYCHYVHYASASTVLPAFGVDAWGQGTTVTVSS VL: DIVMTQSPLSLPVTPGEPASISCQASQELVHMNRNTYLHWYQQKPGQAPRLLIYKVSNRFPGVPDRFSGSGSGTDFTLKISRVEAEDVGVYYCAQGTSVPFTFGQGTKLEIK
MEASUREMENT UNIT: fold
fold change of affinity: 0.6
//
BINDER: H183/L072 VH A102P (antibody, name in Kabat numbering, V domains shown) VH: QVQLVESGGGLVQPGRSLRLSCAASGFTFSNAWMHWVRQAPGKGLEWVAQIKDKGNAYAAYYAPSVKGRFTISRDDSKNSIYLQMNSLKTEDTAVYYCHYVHYASASTVLPAFGVDPWGQGTTVTVSS VL: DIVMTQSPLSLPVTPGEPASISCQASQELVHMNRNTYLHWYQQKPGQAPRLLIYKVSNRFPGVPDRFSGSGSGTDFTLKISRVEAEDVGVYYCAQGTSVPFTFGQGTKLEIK
MEASUREMENT UNIT: fold
fold change of affinity: 0
//
BINDER: H183/L072 VH Y94L (antibody, name in Kabat numbering, V domains shown) VH: QVQLVESGGGLVQPGRSLRLSCAASGFTFSNAWMHWVRQAPGKGLEWVAQIKDKGNAYAAYYAPSVKGRFTISRDDSKNSIYLQMNSLKTEDTAVYYCHLVHYASASTVLPAFGVDAWGQGTTVTVSS VL: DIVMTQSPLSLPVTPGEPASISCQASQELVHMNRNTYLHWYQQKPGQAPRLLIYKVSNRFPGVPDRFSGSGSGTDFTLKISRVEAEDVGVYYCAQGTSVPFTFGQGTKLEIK
MEASUREMENT UNIT: fold
fold change of affinity: 0.8

# next binder below
Look up fold change of affinity: H183/L072 VH K52bN (antibody, name in Kabat numbering, V domains shown) VH: QVQLVESGGGLVQPGRSLRLSCAASGFTFSNAWMHWVRQAPGKGLEWVAQIKDNGNAYAAYYAPSVKGRFTISRDDSKNSIYLQMNSLKTEDTAVYYCHYVHYASASTVLPAFGVDAWGQGTTVTVSS VL: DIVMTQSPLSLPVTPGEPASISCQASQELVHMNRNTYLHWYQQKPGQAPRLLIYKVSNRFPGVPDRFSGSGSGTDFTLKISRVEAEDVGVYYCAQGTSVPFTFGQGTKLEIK
0.5
